test system: K562; experiment: Antiproliferative activity against human K562 cells assessed as inhibition of cell viability incubated for 72 hrs by real time live-cell imaging technique; format: functional, cell-based; conditions: K562, 72 h
property-measured: log10 IC50 (log10 of the value in nM)
Lab note - IC50 converted to log10 from values in nM.

Recorded results for 5 compounds are shown here.
- structure-as-smiles: "O=C(Nc1ccc(Cl)c(C(F)(F)F)c1)Nc1nnc(Sc2cc(OCCCN3CCOCC3)ncn2)s1"
  log10 IC50: 2.18
- structure-as-smiles: "Cc1ccc(NC(=O)c2ccc(CN3CCN(C)CC3)cc2)cc1Nc1nccc(-c2cccnc2)n1"
  log10 IC50: 2.15
- structure-as-smiles: "Cc1ccc(NC(=O)Nc2nnc(Sc3cc(OCCCN4CCOCC4)ncn3)s2)cc1"
  log10 IC50: 1.89
- structure-as-smiles: "O=C(Nc1ccc(Cl)cc1)Nc1nnc(Sc2cc(NCCCN3CCOCC3)ncn2)s1"
  log10 IC50: 2.04
- structure-as-smiles: "COc1cccc(NC(=O)Nc2nnc(Sc3cc(NCCCN4CCOCC4)ncn3)s2)c1"
  log10 IC50: 2.84

Request: Give its log10 IC50 value. Item: Cc1ccc(NC(=O)Nc2nnc(Sc3cc(NCCCN4CCOCC4)ncn3)s2)cc1Cl
Response: 1.54

====

test system: K562; assay: Antiproliferative activity against human K562 cells assessed as inhibition of cell viability incubated for 72 hrs by real time live-cell imaging technique; assay type: functional, cell-based; settings: K562, 72 h
The following molecules are shown together with reported pIC50 values.
Scale: negative log10 of molar concentration, which is what pIC50 denotes.

- structure-as-smiles: "CCN(CC)CCCNc1cc(Sc2nnc(NC(=O)Nc3ccc(Cl)c(C(F)(F)F)c3)s2)ncn1"
  pIC50: 6.55
- structure-as-smiles: "O=C(Nc1ccc(C(F)(F)F)cc1)Nc1nnc(Sc2cc(NCCCN3CCOCC3)ncn2)s1"
  pIC50: 7.42
- structure-as-smiles: "O=C(Nc1ccc(Cl)c(C(F)(F)F)c1)Nc1nnc(Sc2cc(NCCCN3CCOCC3)ncn2)s1"
  pIC50: 6.92

Request: Please provide the recorded pIC50 for CCN(CC)CCCNc1cc(Sc2nnc(NC(=O)Nc3ccc(C)cc3)s2)ncn1 , tested on K562.
Response: 7.85

Request: Notebook: pull reported pIC50 for K562, entry Cc1ccc(NC(=O)Nc2nnc(Sc3cc(NCCCN4CCOCC4)ncn3)s2)cc1
Response: 7.25
